Quick reference for Test A disease control rating among some compounds
# System: Phakopsora pachyrhizi (the causal agent of Asian soybean rust)
# ASSAY: Test A: preventive spray on soybean seedlings, Asian soybean rust, visual disease rating
# Format: in vivo
# COND: test suspension 10 ppm; soybean seedlings; 100 = 100% disease control, 0 = no control
State the answer as a number, implicitly in %.

Worked cases, answers included:
O=C(COC(=O)c1cnn(Cc2ccc(-c3noc(C(F)(F)F)n3)cc2)c1)c1ccccc1 :: 100
CON=C(C)COC(=O)c1cnn(Cc2ccc(-c3noc(C(F)(F)F)n3)cc2)c1 :: 100
COC(=O)c1cccc2cnn(Cc3ccc(-c4noc(C(F)(F)F)n4)cc3)c12 :: 100
FC(F)(F)c1nc(-c2ccc(Cn3ncc4c(I)cc(Cl)cc43)cc2)no1 :: 44
Cc1ccc(F)cc1OCc1ccc(-c2noc(C(F)(F)F)n2)s1 :: 100

I have this compound here, CN1CCCC1COC(=O)c1cnn(Cc2ccc(-c3noc(C(F)(F)F)n3)cc2)c1 (stereo not drawn) , and I need its recorded Test A disease control rating.
100

I have this compound here, `CCOC(=O)c1cnn(CS(=O)(=O)Cc2ccc(-c3noc(C(F)(F)F)n3)cc2)c1` , and I need its recorded Test A disease control rating.
98

I have this compound here, `Cc1c2c(Br)cccc2nn1Cc1ccc(-c2noc(C(F)(F)F)n2)cc1` , and I need its recorded Test A disease control rating.
99

I have this compound here, `C=CCNC(=O)c1cnn(Cc2ccc(-c3noc(C(F)(F)F)n3)cc2)c1` , and I need its recorded Test A disease control rating.
100

I have this compound here, `Cc1cc2c(cnn2Cc2ccc(-c3noc(C(F)(F)F)n3)cc2)cc1Br` , and I need its recorded Test A disease control rating.
96

I have this compound here, `CCOC(=O)c1csc(Cc2ccc(-c3noc(C(F)(F)F)n3)cc2)n1` , and I need its recorded Test A disease control rating.
100

I have this compound here, `CC(C)(NC(=O)c1coc(Cc2ccc(-c3noc(C(F)(F)F)n3)cc2)n1)C(F)(F)F` , and I need its recorded Test A disease control rating.
99

* * *

Quick reference for Test B disease control rating among some compounds
# Tested on: Zymoseptoria tritici (the causal agent of wheat leaf blotch)
# ASSAY: Test B: preventive spray on wheat seedlings, wheat leaf blotch, visual disease rating
# Format: in vivo
# COND: test suspension 250 ppm; wheat seedlings
Marks after values point to notes of the source that are not given here.

N#Cc1csc(Cc2ccc(-c3noc(C(F)(F)F)n3)cc2)n1 :: 98* %
FC(F)(F)c1nc(-c2ccc(Cn3nnc4ccccc43)cc2)no1 :: 96%

Now turn to the next compound.
I have this compound here, `O=C(NCC(F)(F)F)c1coc(Cc2ccc(-c3noc(C(F)(F)F)n3)cc2)c1` , and I need its recorded Test B disease control rating.
13* %

* * *

# Test system: Puccinia recondita f. sp. tritici (the causal agent of wheat leaf rust)
# ASSAY: Test C: preventive spray on wheat seedlings, wheat leaf rust, visual disease rating
# Assay type: in vivo
# COND: test suspension 10 ppm; wheat seedlings
OUTCOME MEASURE: Test C disease control rating (%)
State the answer as a number, implicitly in %.

I have this molecule here, `CNC(=O)c1nn(Cc2ccc(-c3noc(C(F)(F)F)n3)cc2)c2ccccc12` , and I need its recorded Test C disease control rating.
99

I have this molecule here, `O=c1c2ccccc2sn1Cc1ccc(-c2noc(C(F)(F)F)n2)cc1` , and I need its recorded Test C disease control rating.
0

I have this molecule here, `COC(=O)C1(NC(=O)c2cnn(Cc3ccc(-c4noc(C(F)(F)F)n4)cc3)c2)CC1` , and I need its recorded Test C disease control rating.
99

I have this molecule here, `O=[N+]([O-])c1ccc2c(c1)c(Br)nn2Cc1ccc(-c2noc(C(F)(F)F)n2)cc1` , and I need its recorded Test C disease control rating.
0

I have this molecule here, `COC(=O)c1ccc(COc2ccc(-c3noc(C(F)(F)F)n3)cc2)s1` , and I need its recorded Test C disease control rating.
0

I have this molecule here, `Cc1nn(Cc2ccc(-c3noc(C(F)(F)F)n3)cc2)c2ccccc12` , and I need its recorded Test C disease control rating.
68

I have this molecule here, `N#Cc1ccc(COC(=O)c2cnn(Cc3ccc(-c4noc(C(F)(F)F)n4)cc3)c2)cc1` , and I need its recorded Test C disease control rating.
100

I have this molecule here, `COCCNC(=O)c1csc(Cc2ccc(-c3noc(C(F)(F)F)n3)cc2)c1` , and I need its recorded Test C disease control rating.
100

I have this molecule here, `CCOC(=O)c1cnn(Cc2ccc(-c3noc(C(F)(F)F)n3)cc2F)c1` , and I need its recorded Test C disease control rating.
100

I have this molecule here, `NC(=O)c1csc(Cc2ccc(-c3noc(C(F)(F)F)n3)cc2)n1` , and I need its recorded Test C disease control rating.
100
